The measured values listed here are drawn from ChEMBL document CHEMBL3102805.

SYSTEM UNDER TEST: Orexin/Hypocretin receptor type 1 (Homo sapiens, UniProt O43613)
Sequence (O43613 whole entry): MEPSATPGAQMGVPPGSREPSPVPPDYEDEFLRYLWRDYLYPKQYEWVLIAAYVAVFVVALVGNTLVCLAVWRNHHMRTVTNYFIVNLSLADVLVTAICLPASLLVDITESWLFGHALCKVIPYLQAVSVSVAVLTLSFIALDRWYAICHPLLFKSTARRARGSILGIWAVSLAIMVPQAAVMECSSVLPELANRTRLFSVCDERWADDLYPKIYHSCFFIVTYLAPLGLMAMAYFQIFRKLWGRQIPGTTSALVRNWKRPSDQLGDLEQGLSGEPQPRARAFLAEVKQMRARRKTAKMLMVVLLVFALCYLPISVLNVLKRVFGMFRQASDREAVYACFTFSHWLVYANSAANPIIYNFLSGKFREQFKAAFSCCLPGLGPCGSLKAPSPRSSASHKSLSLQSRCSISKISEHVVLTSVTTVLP
ASSAY PROCEDURE: Agonist activity at human OX1 receptor overexpressed in CHO-RD-HGA16 cells assessed as calcium mobilization after 15 mins by fluorescence assay
Where a SMILES comes first, the peptide text is derived from it.
# reported EC50; entries follow
Unit µM implied. Number only.

[ask] Consider the molecule CC[C@H](C)[C@H](NC(=O)CNC(=O)[C@H](C)NC(=O)[C@H](C)NC(=O)[C@H](C)NC(=O)[C@H](CC(N)=O)NC(=O)CNC(=O)[C@H](C)NC(=O)CNC(=O)[C@H](Cc1cnc[nH]1)NC(=O)[C@H](CC(C)C)NC(=O)[C@H](CC(C)C)NC(=O)[C@H](CCC(=O)O)NC(=O)[C@@H](N)Cc1ccc(O)cc1)C(=O)N[C@@H](CC(C)C)C(=O)N[C@H](C(=O)N[C@@H](CC(C)C)C(N)=O)[C@@H](C)O (H-YELLHGAGNAAAGILTL-NH2) . State its measured EC50.
[reply] 3.06

[ask] // fetch EC50 given entry CC[C@H](C)[C@H](NC(=O)CNC(=O)[C@H](C)NC(=O)[C@H](C)NC(=O)[C@H](Cc1cnc[nH]1)NC(=O)[C@H](CC(N)=O)NC(=O)CNC(=O)[C@H](C)NC(=O)CNC(=O)[C@H](Cc1cnc[nH]1)NC(=O)[C@H](CC(C)C)NC(=O)[C@H](CC(C)C)NC(=O)[C@H](CCC(=O)O)NC(=O)[C@H](N)Cc1ccc(O)cc1)C(=O)N[C@@H](CC(C)C)C(=O)N[C@H](C(=O)N[C@@H](CC(C)C)C(N)=O)[C@@H](C)O
[reply] 1.36

[ask] For the molecule CC[C@H](C)[C@H](NC(=O)CNC(=O)[C@H](C)NC(=O)[C@H](C)NC(=O)[C@H](Cc1cnc[nH]1)NC(=O)[C@H](CC(N)=O)NC(=O)CNC(=O)[C@H](C)NC(=O)CNC(=O)[C@H](Cc1cnc[nH]1)NC(=O)[C@H](CC(C)C)NC(=O)[C@H](CC(C)C)NC(=O)[C@H](CCC(=O)O)NC(=O)[C@H](Cc1ccc(O)cc1)NC(=O)[C@H](CC(C)C)NC(=O)[C@@H](N)CCCNC(=N)N)C(=O)N[C@@H](CC(C)C)C(=O)N[C@H](C(=O)N[C@@H](CC(C)C)C(N)=O)[C@@H](C)O (H-RLYELLHGAGNHAAGILTL-NH2) , give its reported EC50.
[reply] 0.064

[ask] Query EC50 for CC[C@H](C)[C@H](NC(=O)CNC(=O)[C@H](C)NC(=O)[C@H](C)NC(=O)[C@H](Cc1cnc[nH]1)NC(=O)[C@H](CC(N)=O)NC(=O)CNC(=O)[C@H](C)NC(=O)[C@@H]1CCCN1C(=O)[C@H](Cc1cnc[nH]1)NC(=O)[C@H](CC(C)C)NC(=O)[C@H](CC(C)C)NC(=O)[C@H](CCC(=O)O)NC(=O)[C@@H](N)Cc1ccc(O)cc1)C(=O)N[C@@H](CC(C)C)C(=O)N[C@H](C(=O)N[C@@H](CC(C)C)C(N)=O)[C@@H](C)O (H-YELLHPAGNHAAGILTL-NH2)
[reply] 2.48

[ask] Indicate its recorded EC50; the molecule in question is CC[C@H](C)[C@H](NC(=O)CNC(=O)[C@H](C)NC(=O)[C@H](C)NC(=O)[C@H](Cc1cnc[nH]1)NC(=O)[C@H](CC(N)=O)NC(=O)CNC(=O)[C@H](C)NC(=O)CNC(=O)[C@H](Cc1cnc[nH]1)NC(=O)[C@H](CC(C)C)NC(=O)[C@H](CC(C)C)NC(=O)[C@H](CCC(=O)O)NC(=O)[C@H](C)N)C(=O)N[C@@H](CC(C)C)C(=O)N[C@H](C(=O)N[C@@H](CC(C)C)C(N)=O)[C@@H](C)O (H-AELLHGAGNHAAGILTL-NH2)
[reply] 1.91
